- Test system: HEK-293T
- Assay overview: Incucyte cell viability with HEK293T; further: unitless GR value; below 1 slowed growth and below 0 cell loss
- Assay type: toxicity, cell-based
- Condition: human, 6 h, 10 µM, compound concentration 10 uM, replicate number 1
# Growth Rate listing for each entry below
Experimental readout: Growth Rate

• COc1ccc(Cl)cc1[C@]1(F)C(=O)Nc2cc(C(F)(F)F)ccc21 [FLINDOKALNER] = 0.73
• COC(=O)c1ccc2c(c1)NC(=O)/C2=C(\Nc1ccc(N(C)C(=O)CN2CCN(C)CC2)cc1)c1ccccc1 [NINTEDANIB] = -0.42
• Cc1cc(-c2nc(-c3ccc(OC(F)(F)F)cc3)no2)nn1Cc1ccnc(N2CCN(C3CC3)CC2)c1 = 0.47
• CC#CC(=O)N1CCN(c2nc(-c3ccc(Oc4ccccc4)cc3)c(C(N)=O)s2)CC1 = 0.41
• CN1CCN(C(=O)c2ccc3cc2OCCOCCNc2ccn4ncc-3c4n2)CC1 = 0.93
• CC(C)S(=O)(=O)c1ccccc1Nc1nc(N[C@@H]2CCCN(CCCCCCCNC(=O)COc3cccc4c3C(=O)N(C3CCC(=O)NC3=O)C4=O)C2)ncc1Cl (some centres not stated) = -0.44
• Fc1cccc(-n2cnc3c(NCc4nc5ccc(F)c(F)c5[nH]4)nc(N4CCOCC4)nc32)c1 = -0.14
• COc1ccc(C(F)(F)F)cc1NC(=O)Nc1ccc(Oc2cc(C)nc(N)n2)c2ccccc12 = 0.58
• CN[C@@H](C)C(=O)N[C@H](C(=O)N1CCC[C@H]1C(=O)Nc1snnc1-c1ccccc1)C1CCCCC1 [GDC-0152] = 0.13
• C=CC(=O)Nc1ccc(C(=O)Nc2n[nH]c3c2CN(C(=O)N[C@H](CN(C)C)c2ccccc2)C3(C)C)cc1 = 0.11
• O=c1c(Br)ccc2n1C[C@@H]1CNC[C@H]2C1 = 0.59
• Cc1cc(-c2cnc(N)c3c(-c4ccc5scnc5c4)csc23)n(C)n1 = -0.34
